# target-or-system: T1, Soluble heterodimeric CD3 protein (hCD3-epsilon/hCD3-delta) with either a human Fc tag (hFcΔAdp/hFc) or a … (human, UniProt P07766 23-126; P04234 22-105)
# T1 construct: also called hCD3ε/δ; not shown: Fc tag: human (hFcΔAdp/hFc)
# T1 sequence (P07766 23-126 limits assumed, stated change not applied, chain 1 of 2): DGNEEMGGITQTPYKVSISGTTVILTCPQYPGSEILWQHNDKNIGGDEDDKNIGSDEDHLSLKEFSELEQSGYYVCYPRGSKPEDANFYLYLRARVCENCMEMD
# T1 sequence (P04234 22-105 limits assumed, stated change not applied, chain 2 of 2): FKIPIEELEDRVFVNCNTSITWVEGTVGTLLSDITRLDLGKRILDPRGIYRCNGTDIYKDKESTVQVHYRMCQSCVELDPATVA
# experimental-details: SPR Biacore 25C antibody-capture
# Procedure: Measurements were conducted on a T200 Biacore™ instrument. Soluble heterodimeric CD3 protein (hCD3-epsilon/hCD3-delta; SEQ ID NOs:1652/1653) with either a human Fc tag (hFcΔAdp/hFc; SEQ ID NOs:1683/1684) or a mouse Fc tag (mFcΔAdp/mFc; SEQ ID NOs:1685/1686) was injected over the antibody captured surface and the binding response was recorded. Heterodimeric CD3 protein was purified using the method described in Davis et al. (US2010/0331527). […]
measured-metric: pKd
Conceptually, pKd converts a concentration in mol/L into minus its log10.

Use these answered entries as a reference point.
binder	measured-metric	assay-value
H1H5771P (antibody, human IgG1, V domains shown, H1H: human IgG1 Fc; divalent) VH: EVQLVESGGGLVQPGRSLRLSCAASGFSFDNYAMHWVRQAPGQGLEWVSGISWNSGSRDYADSVKGRFTISRDNARNSLFLQMNSLSNEDTAMYYCAKDKSGYGSYFYGMDVWGQGTTVTVSS VL: EIVLTQSPGTLSLSPGDRATLSCRASQSIRNIYLAWYQQKPGQAPRLLIHGASTRATGIPDRFSGSGSGTDFTLTISRLEPEDFAVYYCQQRVSLPYTFGQGTKLEIK	pKd	7.68
H1H5763P (antibody, human IgG1, V domains shown, H1H: human IgG1 Fc; divalent) VH: QVQLVESGGGVVQPGRSLRLSCAASGLTFSSYGMHWVRQAPGKGLEWVAVISYDGSNKYYTDSVKGRFTISRDNSKNTLYLQMNSLRAEDTAVYYCAKGAMVRGVPYNYYYGMDVWGQGTTVTVSS VL: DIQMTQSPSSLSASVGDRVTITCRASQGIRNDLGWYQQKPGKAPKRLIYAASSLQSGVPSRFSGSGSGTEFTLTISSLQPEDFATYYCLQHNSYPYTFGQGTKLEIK	pKd	5.53
H1H2712N (antibody, human IgG1, V domains shown, H1H: human IgG1 Fc; divalent) VH: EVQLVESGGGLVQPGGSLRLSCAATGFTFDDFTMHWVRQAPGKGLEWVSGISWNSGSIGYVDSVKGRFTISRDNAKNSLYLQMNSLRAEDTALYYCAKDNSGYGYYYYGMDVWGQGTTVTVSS VL: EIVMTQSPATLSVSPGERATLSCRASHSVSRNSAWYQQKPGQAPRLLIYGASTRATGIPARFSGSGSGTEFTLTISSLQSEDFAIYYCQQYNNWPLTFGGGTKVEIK	pKd	7.05
H1H5799P (antibody, human IgG1, V domains shown, H1H: human IgG1 Fc; divalent) VH: QVQLVQSGAEVKKPGASVKVSCKASGYTFIGYYMHWVRQAPGQGLEWMGWINPKSGGTNYAQKFQGRVTMTGDTSISTAYMELSRLRSDDTAVFYCARMGDGAMFDYWGQGTLVTVSS VL: DIQMTQSPSSLSASVGDRVTITCRASQRISSYLNWYQQKAGKAPKVLIYTASSLQSGVPSRFSGSGSGTDFTLTISSLQPEDFATYYCQQSYSTPLTFGGGTKVEIK	pKd	6.24
H1H5793B (antibody, human IgG1, V domains shown, H1H: human IgG1 Fc; divalent) VH: QVQLVQSGTEVKKPGASMKVSCKASGYTFTGYYIHWVRQAPGQGLEWMGWINPNSDVTKYAQKFQGRVTLTRDTSISAAYIDLSRLRSDDTAIYYCARMGDGAVFDYWGQGTLVTVSS VL: DIQLTQSPSSLSASVGDRVTITCRASQRISSYLNWYQQKPGKAPKVLISVASSLQSGVPSRFSGSGFGTDFTLTISSLQPEDSASYYCQQSYNTPLTFGGGTKLEIKR	pKd	7.35
H1H5757B (antibody, human IgG1, V domains shown, H1H: human IgG1 Fc; divalent) VH: EVQLVESGGGVVQPGRSLRLSCAASGFTFSSYGMHWVRQAPGKGLEWVTVILHDGSNRYSADSVKGRFTISRDNSKNTLYLQMNILRVEDTAVYYCTKGAMVRGVPYNHYYGMDVWGQGTTVTVSS VL: DIQMTQSPSSLSASVGDRVTITCRASQGIRNDLGWYQQKPGKAPKRLIYAASILQSGVPSRFSGSGSGTEFTLTISSLQPEDFATYYCLQHNSYPYTFGQGTKLEIKR	pKd	6.93
H1H5755B (antibody, human IgG1, V domains shown, H1H: human IgG1 Fc; divalent) VH: EVQLVESGGGVVQPGRSLRLSCAASGFTFSNYGMHWVRQAPGKGLEWVTVILHDGSYKYYADSVKGRFTISRDNSKNTLHLQMNSLRTEDTAVYYCAKGPMFRGVPYNHYYGMDVWGQGTTVTVSS VL: DIQMTQSPSSLSASVGDRVTITCRASQGIRNDLGWYQQKPGKAPKRLIYAASSLQSGVSSRFSGSGSGTEFTLTISSLQPEDFATYYCLQHNSYPYTFGQGTKVEIKR	pKd	7.24
H1H5791B (antibody, human IgG1, V domains shown, H1H: human IgG1 Fc; divalent) VH: QVQLVESGAEVKKPGASVKVSCKTSGYTLSGYYMHWMRQAPGQGLEWMGWINPKSGVTNYAQKFQDRVAMTRDTSISTAYMELSRLRSDDTAVYYCARMGDGAVFDFWAQGTLVTVSS VL: DIQLTQSPSSLSASVGDRVTITCRASQRISSFLNWYQQKPGKAPKLLIYTASNLQNGVPSRFSGSGSGTDFTLTISSLQPEDFATYYCQQSYRTPLTFGGGTKLEIKR	pKd	7.14

Request: Param item = H1H5764P (antibody, human IgG1, V domains shown, H1H: human IgG1 Fc; divalent) VH: QVQLVESGGGVVQPGRSLRLSCAASGFTFRSFGMHWVRQAPGKGLEWVAVISYDGNYKYYADSVKGRFTISRDNSKNTLYLQMNSLRAEDTAVHYCAKGAMVRGVPYNFYYGMDVWGQGTTVTVSS VL: DIQMTQSPSSLSASVGDRVTITCRASQVIRNDLGWYQQKPGKAPKRLIYAASSLQSGIPSRFSGSGSGTEFTLTISSLQPEDFATYYCLQHNSYPYTFGQGTKLEIK ; retrieve measured pKd.
Result: 5.42

Request: Param item = H1H5786B (antibody, human IgG1, V domains shown, H1H: human IgG1 Fc; divalent) VH: QVQLVESGAEVKKPGASVKVSCKTSGYTFTGYYMHWIRQAPGQGLEWMGWINPKSGGTNYAQKFQGRVTMTRDTSISTAYMELSRLRSDDMAVYYCARMGDGAVFDFWGQGTLVTVSS VL: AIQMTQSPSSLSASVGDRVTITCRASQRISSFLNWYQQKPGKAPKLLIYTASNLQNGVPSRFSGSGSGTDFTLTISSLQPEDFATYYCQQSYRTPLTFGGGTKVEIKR ; retrieve measured pKd.
Result: 7.07
